- Protocol: Pharmacokinetics of MNP in the rat (plasma, LC/MS/MS)
- Assay type: in vivo, male Sprague-Dawley rats
- Conditions: male, Sprague-Dawley, plasma, intravenous, 5 mg/kg i.v., 480 min, mean ± s.e.m., 3 rats, read-out: MNP plasma levels
Measured Metric: concentration at 480 min (ng/mL)
Could you give me the number in ng/mL? Just the number is fine.

Q: I have this molecule here, C[C@@H]1CC=NN1C(=O)c1cccnc1 [MNP] , and I need its recorded concentration at 480 min.
Result: 2

====

- Protocol: Pharmacokinetics of MNP in the rat (plasma, LC/MS/MS)
- Assay type: in vivo, male Sprague-Dawley rats
- Conditions: male, Sprague-Dawley, plasma, iv, 5 mg/kg i.v., approximate value
Measured Metric: Tmax

Q: Tmax for C[C@@H]1CC=NN1C(=O)c1cccnc1 ?
Result: ~5 min
